The values you see were collected from patent US5385894A.

Protocol description: log P (Table 1)
Format: physicochemical
Property measured: logP

Answered cases to consult:
Given item CCCCCN(C(=O)c1ccncc1)c1ccc2nc(CCC)n(Cc3ccc(-c4ccccc4-c4nnn[nH]4)cc3)c(=O)c2c1 [Example 35] , the value recorded as its logP is 4.3

Input CCc1nc2ccc(N(Cc3ccccc3)C(=O)c3ccccc3)cc2c(=O)n1Cc1ccc(-c2ccccc2-c2nnn[nH]2)cc1 [Example 57] . Output logP: 4.1

P = CCCCCN(C(=O)c1ccccc1)c1ccc2nc(CCC)n(Cc3ccc(-c4ccccc4S(=O)(=O)NC(=O)C4CC4)cc3)c(=O)c2c1 [Example 73]
Q = CCCc1nc2ccc(N(C)C(=O)c3cccs3)cc2c(=O)n1Cc1ccc(-c2ccccc2-c2nnn[nH]2)cc1 [Example 114]
QUERY: Compare the recorded logP of P and Q ; state which is larger. Answer = label.
RESULT: P
